Recorded measurements of protein stability index, one per entry
B1: NECAB1 (parent)
chain: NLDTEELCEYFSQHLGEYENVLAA

- Variants of: B1
- Assay text: protein stability index of a GFP-peptide fusion (GPS, HEK-293T) (PSI 1-6); higher = more stable;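 also: lentivirally expressed fusions sorted by FACS into six bins by GFP to DsRed ratio, PSI derived from sequencing read proportions per bin multiplied by bin number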
- Test settings: c terminus: a fixed tail appended
Number only, please.

Answered examples (3):
Mutation	Experimental readout	Result
E19P	protein stability index	2.91
S12N	protein stability index	3.07
Y10H	protein stability index	4.12

Lookup: I'd like to know its protein stability index. The variant in question is `G16K`
Found: 1.81

Lookup: Which value of protein stability index has been reported for `G16D` in the records?
Found: 2.29

Lookup: Give its protein stability index value. Item: `N20R`
Found: 2.25
